FYI, the data here is from patent US20060069132A1.

For each record, write down the corresponding Lambsquarters plant response rating.
tested on: lambsquarters; assay: Test B pre-/postemergence herbicide test; assay type: in vivo, Chenopodium album; conditions: postemergence, 125 g ai/ha; visual rating, scale 0 (no effect) to 100 (complete control)

- CCN(CC)C(=O)c1cccc(NC(=O)c2cc(C(C)(C)C)nn2CC)n1: 60
- CCn1nc(C(C)(C)C)cc1C(=O)Nc1cccc(OC(C)C)c1: 60

Task: Returns the measured Lambsquarters plant response rating for the input compound. Input: `Cc1nc(C(C)(C)C)sc1C(=O)Nc1cccc(C(=O)NCCF)c1`
Output: 60

###

For each record, write down the corresponding Foxtail, Giant plant response rating (0 to 100 scale).
test system: giant foxtail; experiment: Test B pre-/postemergence herbicide test; assay type: in vivo, Setaria faberi; settings: 125 g ai/ha; 0 = no effect, 100 = complete control; preemergence
Numbers only.

Worked examples follow.
* CCn1nc(C(C)(C)C)cc1C(=O)Nc1nc(C(=O)OC)ccc1OC | 0
* CCN(CC)C(=O)c1cccc(NC(=O)c2cn(C(C)(C)C)nc2C)c1 | 0
* C#CCNC(=O)c1cccc(NC(=O)c2sc(C(C)(C)C)nc2CC)n1 | 0

Return reported Foxtail, Giant plant response rating (0 to 100 scale) values for all items listed beneath this line.
1. CCc1nn(C(C)(C)C)cc1C(=O)Nc1ccc(F)c(C(=O)N(C)C)c1
2. CCNC(=O)c1ccc(F)c(NC(=O)c2c(F)c(C(C)(C)C)nn2CC)c1
3. Cc1nc(C(C)(C)C)sc1C(=O)Nc1cccc(C(=O)NCC(F)(F)F)c1
4. CCc1nc(C(C)(C)C)sc1C(=O)Nc1cc(C(=O)N(C)CC)ccc1F
5. CCCc1nn(C(C)(C)C)cc1C(=O)Nc1cccc(C(=O)N(CC)CC)c1

Output:
0
0
0
60
0

###

For each record, write down the corresponding Plant response rating, Pigweed.
system: pigweed; assay: Test C pre-/postemergence herbicide test; type: in vivo, Amaranthus retroflexus; conditions: 125 g ai/ha; scale 0 (no effect) to 100 (complete control); visual, 12 to 14 days; preemergence
Numbers only.

* CCn1nc(C(C)(C)C)cc1C(=O)Nc1cccc(OC(F)(F)C(F)F)c1 | 100
* CCC(=NO)c1cccc(NC(=O)c2cc(C(C)(C)C)nn2C)c1 | 90

Task: Returns the measured Plant response rating, Pigweed for the input molecule. Input: `CCn1nc(C2(C)CC2)cc1C(=O)Nc1cccc(C(=O)N2CC=CC2)c1`
Output: 100

###

For each record, write down the corresponding Plant response rating, Foxtail, Giant.
system: giant foxtail; test: Test B pre-/postemergence herbicide test; format: in vivo, Setaria faberi; conditions: 500 g ai/ha; visual rating, 0 = no effect, 100 = complete control; preemergence
Numbers only.

• CCc1nn(C(C)C)nc1C(=O)Nc1cccc(C(=O)N2CC=CC2)c1 = 100
• CCc1cn(C(C)(C)C)nc1C(=O)Nc1cc(C(=O)N(C)C)ccn1 = 30

# evaluate next
Task: Returns the measured Plant response rating, Foxtail, Giant for the input molecule. Input: `CCNC(=O)c1cncc(NC(=O)c2cc(C(C)(C)C)nn2CC)n1`
Output: 10

###

For each record, write down the corresponding Corn plant response rating.
system: corn; test: Test B pre-/postemergence herbicide test; format: in vivo, Zea mays; settings: postemergence, 125 g ai/ha; visual rating, scale 0 (no effect) to 100 (complete control)
Answers are plain numbers.

Worked examples follow.
• CCn1nc(C(C)(C)C)cc1C(=O)Nc1cccc(C(=O)N(C)CC#N)n1 = 0
• CCn1nc(C(C)(C)C)cc1C(=O)Nc1nc(C(=O)OC)ccc1OC = 0
• CC(=O)c1cc(NC(=O)c2cc(C(C)(C)C)nn2C)ccc1F = 0
• C#CCOC(=O)c1cccc(NC(=O)c2cc(C(C)(C)C)nn2CC)c1 = 10
• C#CCNC(=O)c1cncc(NC(=O)c2cc(C(C)(C)C)nn2CC)c1 = 0
• CCc1nc(C(C)(C)C)sc1C(=O)Nc1cc(C(=O)N(C)CC)ccc1F = 10
• C#CCN(C)C(=O)c1ccnc(NC(=O)c2cc(C(C)(C)C)nn2CC)c1 = 0
• CCc1cn(C(C)(C)C)nc1C(=O)Nc1cc(C(=O)N(C)C)ccn1 = 10

Return reported Corn plant response rating values for all items listed beneath this line.
1. CCn1nc(C(C)(C)C)cc1C(=O)Nc1cc(C#N)ccc1F
2. CCn1nc(C(C)(C)C)cc1C(=O)Nc1cccc(C(=O)OC(C)C)c1C

Output:
1: 0; 2: 10
